tested_target: Adenosine receptor A3 (Homo sapiens)
Sequence (P0DMS8 whole entry): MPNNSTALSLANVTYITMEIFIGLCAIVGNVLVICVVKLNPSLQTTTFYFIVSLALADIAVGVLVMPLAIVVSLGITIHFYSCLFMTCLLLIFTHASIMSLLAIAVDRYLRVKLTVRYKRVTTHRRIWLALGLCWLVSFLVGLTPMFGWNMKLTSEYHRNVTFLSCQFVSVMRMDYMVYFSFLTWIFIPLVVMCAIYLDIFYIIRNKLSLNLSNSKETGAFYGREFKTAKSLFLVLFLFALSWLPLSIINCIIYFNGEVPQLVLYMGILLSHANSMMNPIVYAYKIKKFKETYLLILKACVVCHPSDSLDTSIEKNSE
pKi: −log10 of the molar value.
Reported pKi on Adenosine receptor A3 (Homo sapiens) for assorted molecules, compiled from publications.
outcome_measure: pKi

These recorded examples may help you get a feel for the data.
>>> print(df.to_string())
                               entry_smiles                         tested_target  outcome_measure  observed_value
0  CC(C)CCn1cc2c(nc(NC(=O)Cc3ccc(Cl)cc3)n3nc(-c4ccco4)nc23)n1  Adenosine receptor A3 (Homo sapiens)              pKi            7.25
1  CNC(=O)[C@@H]1C[C@@H](O)[C@H](n2cnc3c(NC)ncnc32)O1  Adenosine receptor A3 (Homo sapiens)              pKi            7.23

A: CSC[C@H]1O[C@@H](n2cnc3c(N)ncnc32)[C@H](O)[C@@H]1O
B: Nc1nc(NCCc2cccc(O)c2)nc2sc(-c3ccco3)nc12
Inquiry: Between A and B , which one shows the smaller pKi number? Output the label that corresponds to your choice.
Reply text: A

###

Reported Ki on Adenosine receptor A3 (Homo sapiens, UniProt P0DMS8) for assorted molecules, compiled from publications.
outcome_measure: Ki (nM)

These recorded examples may help you get a feel for the data.
In [3]: df
Out[3]:
                                   molecule  observed_value
0  CNC(=O)[C@H]1O[C@@H](n2cnc3c(NCc4cc(OC)ccc4OC)ncnc32)[C@H](O)[C@@H]1O             3.9
1  CC(C)NC(=Nc1nc2nn(C)cc2c2nc(-c3ccco3)nn12)NC(C)C              33

a: Cc1ccc(-c2nc(Nc3ccccc3)sc2C(=O)Nc2sc3c(c2C(N)=O)CCCC3)cc1
b: CCNc1nc(-n2cc(-c3ccc(OC)cc3)cn2)nc2c1ncn2[C@@H]1O[C@H](CO)[C@@H](O)[C@H]1O
Inquiry: Between a and b , which one shows the smaller Ki number? Output the label that corresponds to your choice.
Reply text: b
(b: 41 nM, a: 334 nM)

P: COC1CCC(C(=O)Nc2nc(-c3ccccc3)ns2)CC1 (stereo in doubt; 8k)
Q: COc1ccc(NC(=O)Nc2nc3cn(CCCc4ccccc4)nc3c3nc(-c4ccco4)nn23)cc1
Inquiry: Name the one with the greater Ki value, either P or Q as given. Output the label that corresponds to your choice.
Reply text: P

A: Cc1cn2c(nc3c2c(=O)n(CCCO)c(=O)n3Cc2ccccc2)[nH]1
B: N[C@@H]1CS[C@@H](n2cnc3c(NCc4cccc(I)c4)nc(Cl)nc32)[C@@H]1O
Inquiry: Name the one with the greater Ki value, either A or B as given. Output the label that corresponds to your choice.
Reply text: B
(B: 380 nM, A: 110 nM)

1: c1ccc(-c2nc3cnc4ccccc4n3n2)cc1
2: Cc1ccc(CNC(=O)[C@H]2S[C@@H](n3cnc4c(NCc5cccc(I)c5)ncnc43)[C@H](O)[C@@H]2O)cc1
Inquiry: Between 1 and 2 , which one shows the smaller Ki number? Output the label that corresponds to your choice.
Reply text: 1
(1: 91.5 nM, 2: 135 nM)

###

Target protein (sequence): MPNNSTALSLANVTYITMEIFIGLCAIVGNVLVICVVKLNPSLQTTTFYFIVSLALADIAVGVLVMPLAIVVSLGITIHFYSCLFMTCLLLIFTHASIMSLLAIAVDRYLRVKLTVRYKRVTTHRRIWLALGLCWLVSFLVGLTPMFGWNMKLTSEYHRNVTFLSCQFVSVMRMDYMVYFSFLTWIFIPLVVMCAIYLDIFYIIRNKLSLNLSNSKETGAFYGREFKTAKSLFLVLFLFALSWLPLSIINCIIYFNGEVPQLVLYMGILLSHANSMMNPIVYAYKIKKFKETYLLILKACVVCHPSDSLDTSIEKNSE
Reported Ki on the protein given by its sequence for assorted compounds, compiled from publications.
outcome_measure: Ki (µM)

These recorded examples may help you get a feel for the data.
                               entry_smiles  observed_value
0  N#Cc1cccc(-c2nc(N)c3nc(-c4ccccc4)sc3n2)c1           0.247
1  NCCC(=O)Nc1nc2nn(CCc3ccccc3)cc2c2nc(-c3ccco3)nn12            0.08
2  CCOC(=O)c1nc(NC(=O)c2ccc(Br)cc2)nc2nn(CCc3ccccc3)cc12             3.6
3   CCOC(=O)c1cnc(NC2CC2)n2nc(-c3ccco3)nc12         0.00952
4  c1ccc(CCNc2nc(NC3CCCCC3)c3[nH]cnc3n2)cc1            1.46
5  Cc1ccc(-n2cc3c(n2)c(=O)[nH]c2ccccc23)cc1          0.0032
6  CCCn1c(=O)c2[nH]c([C@H]3CC4C[C@@H]3[C@H]3O[C@@H]43)nc2n(CCC)c1=O            4.81

1: CNc1nc(-n2ccnn2)nc2c1ncn2[C@@H]1O[C@H](CO)[C@@H](O)[C@H]1O
2: CC(C)Cn1c(=O)[nH]c2nc(-c3cnn(Cc4ccccc4)c3)[nH]c2c1=O
Inquiry: Between 1 and 2 , which one shows the smaller Ki number? Output the label that corresponds to your choice.
Reply text: 1
(1: 0.0104 µM, 2: 1.1 µM)

###

tested_target: Adenosine receptor A3 (Homo sapiens, UniProt P0DMS8)
Sequence (P0DMS8 whole entry): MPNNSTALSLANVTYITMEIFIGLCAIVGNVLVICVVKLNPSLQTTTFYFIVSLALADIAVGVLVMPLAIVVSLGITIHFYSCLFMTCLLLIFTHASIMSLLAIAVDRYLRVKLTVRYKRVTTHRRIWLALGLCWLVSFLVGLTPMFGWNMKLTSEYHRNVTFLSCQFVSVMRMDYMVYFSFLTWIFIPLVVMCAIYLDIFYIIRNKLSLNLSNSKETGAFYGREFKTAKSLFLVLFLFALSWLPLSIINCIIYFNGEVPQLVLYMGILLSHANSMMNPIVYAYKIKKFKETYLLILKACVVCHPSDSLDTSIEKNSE
Reported Ki on Adenosine receptor A3 (Homo sapiens, UniProt P0DMS8) for assorted compounds, compiled from publications.
outcome_measure: Ki (µM)

                                   compound  unit_info  observed_value
0  CCCOC(=O)c1c(-c2ccccc2)nc(CC)c(C(=O)SCC)c1CCC         µM          0.0189
1  O=C(NC1CC1)[C@H]1S[C@@H](n2cnc3c(NC4CC4)nc(Cl)nc32)[C@H](O)[C@@H]1O         µM         0.00562
2  CCn1c(=O)c2[nH]c(-c3ccc(OCC(=O)Nc4ccc(Br)cc4)cc3)nc2n(CCCOC)c1=O         µM            1.29

I: CCCC/C=C/c1nc(N)c2ncn([C@@H]3SC[C@@H](O)[C@H]3O)c2n1
II: CCOC(=O)c1nc2c(=O)[nH]c3ccc(C)cc3n2n1
III: Nc1nc2cn(CCCc3ccccc3)nc2c2nc(-c3ccco3)nn12
IV: O=C(Nc1cccc(I)c1)Nc1nc2ccccc2n2c(=O)n(-c3ccccc3)nc12
V: C=CCN1C(=O)N2C[C@@H](CC)N=C2c2[nH]c(-c3cc(OC)nn3C)nc21
Inquiry: Please produce an ascending ranking of these compounds based on Ki. Please write the labels in the order that was asked for.
Reply text: V, I, II, III, IV

###

Reported Ki on Adenosine receptor A3 (Homo sapiens) for assorted compounds, compiled from publications.
outcome_measure: Ki (nM)

These recorded examples may help you get a feel for the data.
In [3]: df
Out[3]:
                                   compound  unit_info  observed_value
0  O=C(Cc1cccc(I)c1)Nc1nc2ccc(Cl)cc2c2nc(-c3ccco3)nn12         nM             882
1  Cc1ccc(CNC(=O)N2CCC(NC(=O)Nc3nc4nn(C)cc4c4nc(-c5ccco5)nn34)CC2)cc1         nM             3.9
2  CNc1nc(-n2cc(-c3ccncc3)cn2)nc2c1ncn2C1O[C@H](CO)[C@@H](O)[C@H]1O (stereo not given in full)         nM               6
3  [N-]=[N+]=NC[C@H]1S[C@@H](n2cnc3c(NCc4cccc(I)c4)ncnc32)[C@H](O)[C@@H]1O         nM              22
4  O=C(Nc1nc(-c2ccccc2)nc2nn(CCc3ccccc3)cc12)c1cccc(Cl)c1         nM            22.3
5  NNc1nc(NC(C2CC2)C2CC2)c2ncn([C@H]3[C@H](O)[C@H](O)[C@@H]4C[C@@H]43)c2n1         nM              70
6  CCNc1nc(N=[N+]=[N-])nc2c1ncn2[C@H]1[C@H](O)[C@H](O)[C@]2(C(=O)NC)C[C@H]12         nM            0.69
7  Cc1cccc(-n2cc3c(n2)c(NC(=O)Cc2ccccc2)nc2ccccc23)c1         nM             3.9

P: CCCOC(=O)N1Cc2nc(-c3ccccc3)nn2-c2cc(C)ccc21
Q: COc1ccc(CC(=O)Nc2nc(N(C)C)nc3nc(-c4ccco4)nn23)cc1
Inquiry: Name the one with the greater Ki value, either P or Q as given. Output the label that corresponds to your choice.
Reply text: Q

I: CC(C)CCn1cc2c(nc(NC(=O)Cc3ccc4ccccc4c3)n3nc(-c4ccco4)nc23)n1
II: CNc1nc(NC(=O)Cc2ccccc2)n2nc(-c3ccco3)nc2n1
Inquiry: Between I and II , which one shows the smaller Ki number? Output the label that corresponds to your choice.
Reply text: I
